Reported DC50 values follow for various molecules
# target of assay: PTPN2 (B16F10.4 cells) (Mus musculus, UniProt Q06180)
# Construct: HiBiT; host or cells: B16F10.4
# Sequence (Q06180 whole entry): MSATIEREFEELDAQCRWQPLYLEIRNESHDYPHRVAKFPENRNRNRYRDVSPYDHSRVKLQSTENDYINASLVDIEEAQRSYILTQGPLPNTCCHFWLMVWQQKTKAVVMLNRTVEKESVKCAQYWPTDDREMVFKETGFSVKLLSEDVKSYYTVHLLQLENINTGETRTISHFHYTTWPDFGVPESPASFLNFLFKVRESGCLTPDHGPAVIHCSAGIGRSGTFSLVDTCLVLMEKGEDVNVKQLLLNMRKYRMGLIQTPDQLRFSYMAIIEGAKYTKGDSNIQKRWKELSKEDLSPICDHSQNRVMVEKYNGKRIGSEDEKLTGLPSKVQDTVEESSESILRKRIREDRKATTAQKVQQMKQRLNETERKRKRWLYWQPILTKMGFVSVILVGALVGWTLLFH
# method description: HiBiT Degradation B16F10.4 PTPN2
# Assay type: cell-based
# study conditions: 24.0 hours

# example entries with known answers
INSERT INTO results (molecule, experimental_readout, value) VALUES
  ('CC1(C)C[C@@H](Nc2cccc(-c3sc(C(=O)O)c(OCC(=O)O)c3Cl)c2F)CCN1S(=O)(=O)Cc1ccc(F)c(NC(=O)C2CN(C(=O)CNc3cccc4c3CN([C@H]3CCC(=O)NC3=O)C4=O)C2)c1 (single isomer, unassigned) [Example 148b]', 'DC50', '200 to 1000 nM'),
  ('CC1(C)C[C@@H](Nc2cccc(-c3sc(C(=O)O)c(OCC(=O)O)c3Cl)c2)CCN1S(=O)(=O)Cc1cccc(NC(=O)N2CCC(Oc3cccc4c3CN(C3CCC(=O)NC3=O)C4=O)CC2)c1 (stereo partly drawn)', 'DC50', '50 to 200 nM'),
  ('Cn1c(=O)n(C2CCC(=O)NC2=O)c2cccc(OC3CCN(C(=O)Nc4cccc(CS(=O)(=O)N5CC[C@H](Nc6cccc(-c7sc(C(=O)O)c(OCC(=O)O)c7Cl)c6)CC5(C)C)c4)CC3)c21 (stereo partly drawn)', 'DC50', '200 to 1000 nM'),
  ('Cn1c(=O)n(C2CCC(=O)NC2=O)c2ccc(N3CCC(OCC(=O)Nc4cccc(CS(=O)(=O)N5CC[C@H](Nc6cccc(-c7sc(C(=O)O)c(OCC(=O)O)c7Cl)c6)CC5(C)C)c4)CC3)cc21 (stereo partly drawn)', 'DC50', '200 to 1000 nM'),
  ('Cn1c(=O)n(C2CCC(=O)NC2=O)c2ccc([C@H]3CC[C@H](C(=O)Nc4cccc(CS(=O)(=O)N5CC[C@H](Nc6cccc(-c7sc(C(=O)O)c(OCC(=O)O)c7Cl)c6)CC5(C)C)c4)CC3)cc21 (stereo partly drawn)', 'DC50', '< 50 nM'),
  ('Cn1c(=O)n(C2CCC(=O)NC2=O)c2ccc(-c3cccc(CC(=O)Nc4cccc(CS(=O)(=O)N5CC[C@H](Nc6cccc(-c7sc(C(=O)O)c(OCC(=O)O)c7Cl)c6)CC5(C)C)c4)c3)cc21 (stereo partly drawn)', 'DC50', '50 to 200 nM'),
  ('CC1(C)C[C@@H](Nc2cccc(-c3sc(C(=O)O)c(OCC(=O)O)c3Cl)c2)CCN1S(=O)(=O)Cc1cccc(NC(=O)CCCNC(=O)CNc2cccc3c2CN(C2CCC(=O)NC2=O)C3=O)c1 (stereo partly drawn)', 'DC50', '≥ 1000 nM'),
  ('O=C(O)COc1c(C(=O)O)sc(-c2cccc(NC3CCN(S(=O)(=O)Cc4cccc(NC(=O)C5CCN(C(=O)CNc6cccc7c6CN(C6CCC(=O)NC6=O)C7=O)CC5)c4F)CC3)c2)c1Cl (stereo not drawn)', 'DC50', '≥ 1000 nM');

# input Give the reported DC50 for this molecule. Cn1c(=O)n(C2CCC(=O)NC2=O)c2ccc(C3CCN(C(=O)Nc4cccc(CS(=O)(=O)N5CCC(Nc6cccc(-c7sc(C(=O)O)c(OCC(=O)O)c7Cl)c6)CC5)c4)CC3)cc21 (stereo not drawn)
# output 50 to 200 nM

----------
# target of assay: PTPN2 (HiBIT-PTPN2 in 293T.109 cells) (Homo sapiens, UniProt P17706)
# Construct: expressed in transfected cells; host or cells: 293T.109 (293T WT from ATCC)
# Sequence (P17706 1-415): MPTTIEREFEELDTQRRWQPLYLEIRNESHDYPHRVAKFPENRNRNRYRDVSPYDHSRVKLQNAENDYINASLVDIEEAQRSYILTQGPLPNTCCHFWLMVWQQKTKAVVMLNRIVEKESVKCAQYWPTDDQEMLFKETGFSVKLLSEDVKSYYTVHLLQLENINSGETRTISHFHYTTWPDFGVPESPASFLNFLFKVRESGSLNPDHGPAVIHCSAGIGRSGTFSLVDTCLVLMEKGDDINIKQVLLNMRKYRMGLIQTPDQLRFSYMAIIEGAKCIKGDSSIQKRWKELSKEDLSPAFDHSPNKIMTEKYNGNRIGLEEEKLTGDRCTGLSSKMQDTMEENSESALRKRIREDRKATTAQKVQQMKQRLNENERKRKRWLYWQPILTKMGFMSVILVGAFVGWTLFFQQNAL
# method description: HiBiT Degradation 293T.109 PTPN2 (Nano-Glo HiBiT Lytic Assay)
# Type: cell-based
# study conditions: 24.0 hours
In this section, each of the compounds is paired with its reported DC50.

INSERT INTO measurements (compound, experimental_readout, value) VALUES
  ('CC1(C)C[C@H](Nc2cccc(-c3sc(C(=O)O)c(OCC(=O)O)c3Cl)c2)CCN1S(=O)(=O)Cc1ccc(F)c(NC(=O)[C@H]2[C@@H]3CN(C(=O)CNc4cccc5c4CN(C4CCC(=O)NC4=O)C5=O)C[C@@H]32)c1 (stereo partly drawn) [Example 111]', 'DC50', '200 to 1000 nM'),
  ('CC1(C)C[C@@H](Nc2cccc(-c3sc(C(=O)O)c(OCC(=O)O)c3Cl)c2)CCN1S(=O)(=O)Cc1cccc(NC(=O)N2CCCN(c3ccc4c5c(cccc35)C(=O)N4C3CCC(=O)NC3=O)CC2)c1 (stereo partly drawn) [Example 163]', 'DC50', '50 to 200 nM');

Consider the record given below.
# input System PTPN2 (HiBIT-PTPN2 in 293T.109 cells) (Homo sapiens, UniProt P17706). Read-out DC50. Item Cn1c(=O)n(C2CCC(=O)NC2=O)c2ccc(N3CC(OC(=O)Nc4cccc(CS(=O)(=O)N5CC[C@H](Nc6cccc(-c7sc(C(=O)O)c(OCC(=O)O)c7Cl)c6)CC5(C)C)c4)C3)cc21 (stereo partly drawn) [Example 136] . Report value.
# output 200 to 1000 nM

----------
# target of assay: PTPN2 (B16F10.4 cells) (Mus musculus)
# Construct: HiBiT; host or cells: B16F10.4
# method description: HiBiT Degradation B16F10.4 PTPN2
# Type: cell-based
# study conditions: 24.0 hours
experimental readout: DC50

INSERT INTO measurements (compound, value) VALUES
  ('Cn1c(=O)n(C2CCC(=O)NC2=O)c2ccc(-c3cnn(CC(=O)Nc4cccc(CS(=O)(=O)N5CC[C@H](Nc6cccc(-c7sc(C(=O)O)c(OCC(=O)O)c7Cl)c6)CC5(C)C)c4)c3)cc21 (some centres unmarked)', '50 to 200 nM'),
  ('Cn1c(=O)n(C2CCC(=O)NC2=O)c2ccc(C3CCN(C(=O)Nc4cccc(CS(=O)(=O)N5CC[C@H](Nc6cccc(-c7sc(C(=O)O)c(OCC(=O)O)c7Cl)c6)CC5(C)C)c4)CC3F)cc21 (some centres unmarked)', '< 50 nM'),
  ('CC1(C)C[C@@H](Nc2cccc(-c3sc(C(=O)O)c(OCC(=O)O)c3Cl)c2)CCN1S(=O)(=O)Cc1ccc(F)c(NC(=O)C2CN(C(=O)CNc3cccc4c3CN(C3CCC(=O)NC3=O)C4=O)C2)c1 (some centres unmarked)', '200 to 1000 nM'),
  ('O=C(O)COc1c(C(=O)O)sc(-c2cccc(NC3CCN(S(=O)(=O)Cc4cccc(NC(=O)CCCCCCNC(=O)CNc5ccc6c(c5)CN(C5CCC(=O)NC5=O)C6=O)c4)CC3)c2)c1Cl (centres unmarked)', '200 to 1000 nM');

Would you kindly look at the next entry?
# input // output DC50; input CC1(C)C[C@@H](Nc2cccc(-c3sc(C(=O)O)c(OCC(=O)O)c3Cl)c2)CCN1S(=O)(=O)Cc1cccc(NC(=O)[C@H]2[C@@H]3CN(C(=O)CNc4cccc5c4CN(C4CCC(=O)NC4=O)C5=O)C[C@@H]32)c1 (some centres unmarked) ; system PTPN2 (B16F10.4 cells) (Mus musculus)
# output 200 to 1000 nM

----------
Listed here are molecules together with their documented DC50.
# target of assay: PTPN2 (HiBIT-PTPN2 in 293T.109 cells) (Homo sapiens)
# Construct: expressed in transfected cells; host or cells: 293T.109 (293T WT from ATCC)
# method description: HiBiT Degradation 293T.109 PTPN2 (Nano-Glo HiBiT Lytic Assay)
# Assay type: cell-based
# study conditions: 24.0 hours

INSERT INTO measurements (molecule, value) VALUES
  ('Cn1c(=O)n(C2CCC(=O)NC2=O)c2ccc(C3CCN(C(=O)Nc4cccc(CS(=O)(=O)N5CCC(Nc6cc(-c7sc(C(=O)O)c(OCC(=O)O)c7Cl)ccc6F)CC5)c4)CC3)cc21 (stereo not drawn) [Example 121]', '200 to 1000 nM'),
  ('Cn1nc(C2CCC(=O)NC2=O)c2ccc(C3CCN(C(=O)Nc4cccc(CS(=O)(=O)N5CC[C@H](Nc6cccc(-c7sc(C(=O)O)c(OCC(=O)O)c7Cl)c6)CC5(C)C)c4)CC3)cc21 (stereo partly drawn) [Example 143]', '50 to 200 nM');

Now consider a different molecule.
# input Give measured DC50 for CC1(C)C[C@@H](Nc2cccc(-c3sc(C(=O)O)c(OCC(=O)O)c3Cl)c2F)CCN1S(=O)(=O)Cc1ccc(F)c(NC(=O)C2CN(C(=O)CNc3cccc4c3CN([C@H]3CCC(=O)NC3=O)C4=O)C2)c1 (single isomer, unassigned) [Example 148b] (PTPN2 (HiBIT-PTPN2 in 293T.109 cells) (Homo sapiens)).
# output < 50 nM

These data points were gathered from patent US20250302815A1.
